This collection of values is drawn from the supplement of paper PMC6555819.

- System: PXR:RXRa (NR concentration 270 nM, RXRa partner concentration 90 nM)
- assay: PBM binding z-score (relative to random genomic background probes); higher = stronger binding; sequences stand for … in GC…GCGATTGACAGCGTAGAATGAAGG
Catalogue of sequences with associated PBM binding z-score

[
  {
    "residue_codes": "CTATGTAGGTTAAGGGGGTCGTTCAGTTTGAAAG",
    "assayed_target": "PXR:RXRa (NR concentration 270 nM, RXRa partner concentration 90 nM)",
    "PBM binding z-score": 3.86
  },
  {
    "residue_codes": "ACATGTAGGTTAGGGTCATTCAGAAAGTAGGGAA",
    "assayed_target": "PXR:RXRa (NR concentration 270 nM, RXRa partner concentration 90 nM)",
    "PBM binding z-score": 4.47
  },
  {
    "residue_codes": "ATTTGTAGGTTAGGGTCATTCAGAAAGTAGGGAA",
    "assayed_target": "PXR:RXRa (NR concentration 270 nM, RXRa partner concentration 90 nM)",
    "PBM binding z-score": 4.55
  },
  {
    "residue_codes": "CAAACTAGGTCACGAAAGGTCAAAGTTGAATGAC",
    "assayed_target": "PXR:RXRa (NR concentration 270 nM, RXRa partner concentration 90 nM)",
    "PBM binding z-score": 6.9
  },
  {
    "residue_codes": "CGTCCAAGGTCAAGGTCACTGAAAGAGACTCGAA",
    "assayed_target": "PXR:RXRa (NR concentration 270 nM, RXRa partner concentration 90 nM)",
    "PBM binding z-score": 5.68
  },
  {
    "residue_codes": "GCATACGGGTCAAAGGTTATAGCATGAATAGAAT",
    "assayed_target": "PXR:RXRa (NR concentration 270 nM, RXRa partner concentration 90 nM)",
    "PBM binding z-score": 6.29
  },
  {
    "residue_codes": "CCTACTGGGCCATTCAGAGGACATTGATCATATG",
    "assayed_target": "PXR:RXRa (NR concentration 270 nM, RXRa partner concentration 90 nM)",
    "PBM binding z-score": -0.327
  },
  {
    "residue_codes": "CCGAGTAGGATACGAGGGGGCATTCAGTGCGAAT",
    "assayed_target": "PXR:RXRa (NR concentration 270 nM, RXRa partner concentration 90 nM)",
    "PBM binding z-score": 2.31
  },
  {
    "residue_codes": "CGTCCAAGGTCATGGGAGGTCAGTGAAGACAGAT",
    "assayed_target": "PXR:RXRa (NR concentration 270 nM, RXRa partner concentration 90 nM)",
    "PBM binding z-score": 7.17
  },
  {
    "residue_codes": "TCATATAGGTAATAAAGGTGAAAGTCGGCATCTA",
    "assayed_target": "PXR:RXRa (NR concentration 270 nM, RXRa partner concentration 90 nM)",
    "PBM binding z-score": 1.34
  },
  {
    "residue_codes": "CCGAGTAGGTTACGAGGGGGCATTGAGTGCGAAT",
    "assayed_target": "PXR:RXRa (NR concentration 270 nM, RXRa partner concentration 90 nM)",
    "PBM binding z-score": 5.05
  },
  {
    "residue_codes": "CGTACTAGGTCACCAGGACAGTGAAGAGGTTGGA",
    "assayed_target": "PXR:RXRa (NR concentration 270 nM, RXRa partner concentration 90 nM)",
    "PBM binding z-score": 1.53
  }
]
